From: patent US9382222B2

Target: RORc ligand binding domain (Homo sapiens, UniProt P51449)
Sequence (P51449 269-508 limits assumed): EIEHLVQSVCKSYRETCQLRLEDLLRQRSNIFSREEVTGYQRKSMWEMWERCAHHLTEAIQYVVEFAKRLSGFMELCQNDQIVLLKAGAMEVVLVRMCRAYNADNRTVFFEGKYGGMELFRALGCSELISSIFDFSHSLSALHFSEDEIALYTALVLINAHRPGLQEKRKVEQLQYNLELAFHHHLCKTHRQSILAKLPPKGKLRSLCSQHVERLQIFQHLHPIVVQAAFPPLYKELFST
Reported property: IC50 (nM)
Give bare numbers, in nM.

# example entries with known answers
CC(C)CN(Cc1ccc(Cl)cc1)S(=O)(=O)c1ccc(NC2CCN(S(C)(=O)=O)CC2)cc1 [Compound 91]	10
CC(=O)N1CCN(c2ccc(S(=O)(=O)N(Cc3ccccc3C(F)(F)F)CC(F)(F)F)cc2)CC1 [Compound 80]	87

For each of the compounds below, state IC50.
1. CC(=O)N1CCN(c2ccc(S(=O)(=O)N(CC(C)C)c3cccc(Cl)c3)cc2)CC1 [Compound 17]
2. CC(=O)N1CCN(c2ccc(S(=O)(=O)N(Cc3ccccc3C(F)(F)F)C3CCC3)cc2)CC1 [Compound 76]
3. CC(C)CN(Cc1ccc(OC(F)(F)F)cc1)S(=O)(=O)c1ccc(NC2CCN(S(C)(=O)=O)CC2)cc1 [Compound 90]
4. CC(C)CN(c1ccccc1Cl)S(=O)(=O)c1ccc(N2CCC(NS(C)(=O)=O)CC2)cc1 [Compound 24]
5. CC(=O)N1CCC(Oc2ccc(S(=O)(=O)N(CC(C)C)c3cccc(Cl)c3)cc2)CC1 [Compound 33]
6. CC(C)CN(c1ccccc1Cl)S(=O)(=O)c1ccc(N2CCN(S(=O)(=O)N(C)C)CC2)cc1 [Compound 20]

1: 138; 2: 31; 3: 11; 4: 128; 5: 198; 6: 81
